- ASSAY DETAILS: inhibitors of NFkB activation in CF airway cells, SAR follow-up, KKLEB cells, panel, IL8 HTRF, NFkB-GFP (AID 651592);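 further: immortalized cystic fibrosis airway epithelial KKLEB cells with an NF-kB GFP reporter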
- REPORTED CONDITIONS: PAF/TNFa-induced NFkB-GFP / IL8 HTRF, CF-PAF assay, run 2
MEASURED ENDPOINT: IC50 (µM)

Previously resolved entries follow.
1) O=C(Nc1ccc(N2CCN(C(=O)c3ccc(F)cc3)CC2)cc1)c1cccnc1 : 39.4
2) Cc1ccc(NCc2cc3c(C(C)(C)C)nn(-c4ccccc4)c3[nH]c2=O)cc1 : 26
3) CCOc1ccc(NCc2cc3c(-c4ccc(F)cc4)nn(-c4ccccc4)c3[nH]c2=O)cc1 : 15.7
4) O=C(Nc1ccc(N2CCN(C(=O)c3ccccc3)CC2)cc1)c1cccc(Br)c1 : 16.6
5) O=C(Nc1ccc(N2CCN(C(=O)c3ccccc3Cl)CC2)cc1)c1cccnc1 : 4.18
6) O=C(Nc1ccc(N2CCN(C(=O)c3ccccc3F)CC2)cc1)c1ccccn1 : 40.3

P. O=C(Nc1ccc(N2CCN(C(=O)c3ccccc3Cl)CC2)cc1)c1ccccn1
Q. O=C(Nc1ccc(N2CCN(C(=O)c3ccc(F)cc3)CC2)cc1)c1cncc(Br)c1
[ask] // returns P or Q , whichever has the lower IC50 Give the chosen item's label as your response.
[reply] Q
(Q: 3.02 µM, P: 14.4 µM)

###

- ASSAY DETAILS: inhibitors of NFkB activation in CF airway cells, SAR follow-up, KKLEB cells, panel, IL8 HTRF, NFkB-GFP (AID 651592);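 further: immortalized cystic fibrosis airway epithelial KKLEB cells with an NF-kB GFP reporter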
- REPORTED CONDITIONS: PAF/TNFa-induced NFkB-GFP / IL8 HTRF, CF-PAF assay, run 5
Parameter IC50: see the listing below.

Previously resolved entries follow.
1) O=C(Nc1ccc(N2CCN(C(=O)c3ccccc3Cl)CC2)cc1)c1cccnc1 : > 66 µM
2) CCOc1ccc(NCc2cc3c(C(C)(C)C)nn(-c4ccc(Cl)cc4)c3[nH]c2=O)cc1 : 0.52 µM

We now examine a further molecule.
[ask] Look at this molecule and give its reported IC50. `O=C(Nc1ccc(N2CCN(C(=O)c3ccccc3Cl)CC2)cc1)c1ccccn1`
[reply] > 66 µM

###

- TESTED TARGET: Interleukin-8 (Homo sapiens) (UniProt P10145)
- Sequence (P10145 whole entry, looked up): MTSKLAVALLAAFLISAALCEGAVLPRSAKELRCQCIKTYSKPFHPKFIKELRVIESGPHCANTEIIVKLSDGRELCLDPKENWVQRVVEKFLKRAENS
- ASSAY DETAILS: inhibitors of NFkB activation in CF airway cells, SAR follow-up, KKLEB cells, panel, IL8 HTRF, NFkB-GFP (AID 651592);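 further: immortalized cystic fibrosis airway epithelial KKLEB cells with an NF-kB GFP reporter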
- REPORTED CONDITIONS: PAF/TNFa-induced NFkB-GFP / IL8 HTRF, IL8, PAF-induced, run 6
MEASURED ENDPOINT: IC50 (µM)

Previously resolved entries follow.
1) O=C(Nc1ccc(N2CCN(C(=O)c3ccccc3)CC2)cc1)c1cncc(Br)c1 : 24.3
2) Cc1ccc(CNCc2cc3c(C(C)(C)C)nn(-c4ccccc4)c3[nH]c2=O)cc1 : 18.6

P. O=C(Nc1ccc(N2CCN(C(=O)c3ccccc3Cl)CC2)cc1)c1cncc(Br)c1
Q. O=C(Nc1ccc(N2CCN(C(=O)c3ccccc3)CC2)cc1)c1cccnc1
[ask] // returns P or Q , whichever has the lower IC50 Give the chosen item's label as your response.
[reply] P
(P: 17 µM, Q: 36.4 µM)

The reported numbers originate from PubChem BioAssay AID651592.
